This collection of values is drawn from patent US7348140B1.

Target entity: serotonin 1E receptor (Isoleucine 44 / Serine 262) (Homo sapiens, UniProt P28566)
Sequence (P28566 whole entry): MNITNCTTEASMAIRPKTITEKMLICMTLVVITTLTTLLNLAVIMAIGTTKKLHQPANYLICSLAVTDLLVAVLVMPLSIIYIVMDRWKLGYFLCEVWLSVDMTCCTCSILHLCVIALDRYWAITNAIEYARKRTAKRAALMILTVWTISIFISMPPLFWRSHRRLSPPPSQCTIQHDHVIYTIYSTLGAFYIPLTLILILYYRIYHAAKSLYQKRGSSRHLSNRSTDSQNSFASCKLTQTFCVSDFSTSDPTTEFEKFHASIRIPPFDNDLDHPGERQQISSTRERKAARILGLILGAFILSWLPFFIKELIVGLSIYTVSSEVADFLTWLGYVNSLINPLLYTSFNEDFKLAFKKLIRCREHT
Method notes: cell-based
Endpoint: EC50 (nM)
Numeric answer only, unit nM assumed.

Inquiry: Given the entry CN1CCC(c2c[nH]c3ccc(O)cc23)CC1.O=C(O)/C=C\C(=O)O [BRL54443, maleate] , report its measured EC50.
Reply text: 29.5

---

Target entity: serotonin 1E receptor S262F (Phenylalanine 262) (Homo sapiens, UniProt P28566, S262F)
Sequence (P28566 whole entry S262F, looked up): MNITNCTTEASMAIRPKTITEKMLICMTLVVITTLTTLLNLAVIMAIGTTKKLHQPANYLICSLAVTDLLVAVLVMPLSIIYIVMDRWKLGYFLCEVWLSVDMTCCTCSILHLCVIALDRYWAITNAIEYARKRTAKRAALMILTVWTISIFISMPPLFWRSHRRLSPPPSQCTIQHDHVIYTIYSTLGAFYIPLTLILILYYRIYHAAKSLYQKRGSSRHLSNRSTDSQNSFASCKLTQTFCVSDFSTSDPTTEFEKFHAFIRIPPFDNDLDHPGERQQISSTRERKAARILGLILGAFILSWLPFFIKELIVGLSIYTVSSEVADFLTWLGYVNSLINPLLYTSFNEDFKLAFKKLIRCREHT
Method notes: cell-based
Endpoint: EC50
Kindly report the value followed by its unit.

Inquiry: Identify the measured EC50 of CN1CCC(c2c[nH]c3ccc(O)cc23)CC1.O=C(O)/C=C\C(=O)O [BRL54443, maleate] for serotonin 1E receptor S262F (Phenylalanine 262) (Homo sapiens, UniProt P28566, S262F).
Reply text: 174 nM
